From: IntAct's records for PubMed 29039417

B1: BBSome complex member BBS2 (Homo sapiens), Q9BXC9 (parent)
chain: MLLPVFTLKLRHKISPRMVAIGRYDGTHPCLAAATQTGKVFIHNPHTRNQHVSASRVFQSPLESDVSLLSINQAVSCLTAGVLNPELGYDALLVGTQTNLLAYDVYNNSDLFYREVADGANAIVLGTLGDISSPLAIIGGNCALQGFNHEGSDLFWTVTGDNVNSLALCDFDGDGKKELLVGSEDFDIRVFKEDEIVAEMTETEIVTSLCPMYGSRFGYALSNGTVGVYDKTSRYWRIKSKNHAMSIHAFDLNSDGVNELITGWSNGKVDARSDRTGEVIFKDNFSSAIAGVVEGDYRMDGHIQLICCSVDGEIRGYLPGTAEMRGNLMDTSAEQDLIRELSQKKQNLLLELRNYEENAKAELASPLNEADGHRGIIPANTRLHTTLSVSLGNETQTAHTELRISTSNDTIIRAVLIFAEGIFTGESHVVHPSIHNLSSSICIPIVPPKDVPVDLHLKAFVGYRSSTQFHVFESTRQLPRFSMYALTSLDPASEPISYVNFTIAERAQRVVVWLGQNFLLPEDTHIQNAPFQVCFTSLRNGGHLHIKIKLSGEITINTDDIDLAGDIIQSMASFFAIEDLQVEADFPVYFEELRKVLVKVDEYHSVHQKLSADMADHSNLIRSLLVGAEDARLMRDMKTMKSRYMELYDLNRDLLNGYKIRCNNHTELLGNLKAVNQAIQRAGRLRVGKPKNQVITACRDAIRSNNINTLFKIMRVGTASS
partner: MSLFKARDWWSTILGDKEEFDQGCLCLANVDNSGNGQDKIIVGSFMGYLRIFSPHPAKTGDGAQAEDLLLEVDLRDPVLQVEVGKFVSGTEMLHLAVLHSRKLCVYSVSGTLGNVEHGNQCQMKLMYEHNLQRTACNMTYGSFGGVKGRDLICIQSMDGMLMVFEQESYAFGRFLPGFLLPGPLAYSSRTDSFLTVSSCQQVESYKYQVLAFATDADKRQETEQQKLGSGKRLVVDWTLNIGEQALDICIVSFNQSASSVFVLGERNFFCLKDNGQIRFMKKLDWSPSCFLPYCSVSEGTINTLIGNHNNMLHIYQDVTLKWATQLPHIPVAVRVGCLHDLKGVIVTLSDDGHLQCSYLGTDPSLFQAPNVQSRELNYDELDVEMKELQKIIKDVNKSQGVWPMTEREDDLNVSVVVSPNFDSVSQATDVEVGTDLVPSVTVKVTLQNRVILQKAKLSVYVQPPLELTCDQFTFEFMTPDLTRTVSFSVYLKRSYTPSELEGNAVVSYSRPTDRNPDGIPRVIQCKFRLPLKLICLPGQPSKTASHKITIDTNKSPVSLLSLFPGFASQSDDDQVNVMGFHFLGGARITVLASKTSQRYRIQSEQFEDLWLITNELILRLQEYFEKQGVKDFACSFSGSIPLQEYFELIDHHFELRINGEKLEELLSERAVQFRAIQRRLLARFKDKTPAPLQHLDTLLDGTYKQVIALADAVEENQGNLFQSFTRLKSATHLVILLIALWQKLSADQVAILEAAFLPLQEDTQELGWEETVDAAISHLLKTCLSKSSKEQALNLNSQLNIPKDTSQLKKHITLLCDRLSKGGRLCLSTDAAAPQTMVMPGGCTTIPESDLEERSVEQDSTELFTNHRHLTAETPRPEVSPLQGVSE

# Variants of: B1
# stated_conditions: with pthb1_human BBS9, Q3SYG4
reported_property: effect of a mutation on the interaction

These recorded examples may help you get a feel for the data.
# input Which effect of a mutation on the interaction value is on record for L489E ?
# output with no effect

# input Also need S439K , thanks.
# output with no effect

# input Also need Y603K , thanks.
# output with no effect

# input Also need S721A , thanks.
# output with no effect

# input Also need E629A , thanks.
# output with no effect

Let's switch to this variant now.
# input Which effect of a mutation on the interaction value is on record for L352A ?
# output with no effect
